target: JAK-2 (Homo sapiens, UniProt O60674)
Sequence (O60674 whole entry): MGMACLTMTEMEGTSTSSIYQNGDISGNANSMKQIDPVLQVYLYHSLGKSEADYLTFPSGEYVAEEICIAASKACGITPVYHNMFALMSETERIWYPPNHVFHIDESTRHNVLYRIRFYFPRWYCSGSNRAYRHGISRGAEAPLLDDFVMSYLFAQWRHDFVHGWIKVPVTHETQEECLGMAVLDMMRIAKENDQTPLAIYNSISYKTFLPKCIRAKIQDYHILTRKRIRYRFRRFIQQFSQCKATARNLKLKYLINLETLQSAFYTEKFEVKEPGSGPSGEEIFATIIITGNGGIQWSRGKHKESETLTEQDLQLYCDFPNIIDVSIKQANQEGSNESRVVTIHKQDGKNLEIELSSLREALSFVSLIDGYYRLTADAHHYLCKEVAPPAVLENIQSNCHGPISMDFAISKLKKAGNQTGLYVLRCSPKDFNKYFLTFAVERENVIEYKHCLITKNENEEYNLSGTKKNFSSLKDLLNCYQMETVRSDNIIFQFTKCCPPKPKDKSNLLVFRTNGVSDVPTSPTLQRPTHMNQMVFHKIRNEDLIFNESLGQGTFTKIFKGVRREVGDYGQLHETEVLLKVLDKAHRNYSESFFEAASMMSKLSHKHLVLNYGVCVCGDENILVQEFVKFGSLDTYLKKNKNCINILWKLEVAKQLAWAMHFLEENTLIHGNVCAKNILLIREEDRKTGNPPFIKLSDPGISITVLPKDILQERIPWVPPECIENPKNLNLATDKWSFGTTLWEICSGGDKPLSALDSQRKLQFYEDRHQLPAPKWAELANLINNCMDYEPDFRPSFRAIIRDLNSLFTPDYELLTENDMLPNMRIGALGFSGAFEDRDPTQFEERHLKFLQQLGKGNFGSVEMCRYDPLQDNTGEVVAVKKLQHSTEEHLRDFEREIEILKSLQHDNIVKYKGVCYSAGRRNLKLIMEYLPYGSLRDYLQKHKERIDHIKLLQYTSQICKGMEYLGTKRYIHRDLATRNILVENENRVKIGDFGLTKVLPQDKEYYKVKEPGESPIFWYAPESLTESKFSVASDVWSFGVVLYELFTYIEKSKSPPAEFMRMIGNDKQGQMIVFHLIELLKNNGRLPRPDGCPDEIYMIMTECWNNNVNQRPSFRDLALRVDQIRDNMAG
pKi: −log10 of the molar value.
Below is a list of entries, each paired with its recorded pKi value.

O=[N+]([O-])c1cc(O)ccc1C1Nc2ccccc2-c2ccnc3[nH]cc1c23 (stereo not shown)	> 6.60
COc1cc(C2Nc3ccccc3-c3ccnc4[nH]cc2c34)c(Br)cc1O (stereo not shown)	> 6.60
Oc1ccc(C2Nc3ccccc3-c3ccnc4[nH]cc2c34)cc1I (stereo not shown)	> 6.60
OB(O)c1ccc(C2Nc3ccccc3-c3ccnc4[nH]cc2c34)cc1 (stereo not shown)	> 6.60
c1ccc(COCC2Nc3ccccc3-c3ncnc4[nH]cc2c34)cc1 (stereo not shown)	< 5.60

Exercise: Recorded pKi for Fc1cccc(F)c1C1Nc2ccccc2-c2ncnc3[nH]cc1c23 (stereo not shown) , please?
Key: > 6.60

Exercise: Recorded pKi for CCOC(=O)C1Nc2ccccc2-c2ccnc3[nH]cc1c23 (stereo not shown) , please?
Key: 5.60 to 6.60

Exercise: Recorded pKi for COc1ccc(C2Nc3ccccc3-c3ccnc4[nH]cc2c34)cc1 (stereo not shown) , please?
Key: > 6.60

Exercise: Recorded pKi for O=C1NC(c2ccc(O)cc2F)c2c[nH]c3nccc(c23)-c2ccccc21 (stereo not shown) , please?
Key: > 6.60

Exercise: Recorded pKi for FC(F)(F)C1Nc2ccccc2-c2ncnc3[nH]cc1c23 (stereo not shown) , please?
Key: < 5.60

Exercise: Recorded pKi for Fc1cccc(C2Nc3ccccc3-c3ccnc4[nH]cc2c34)c1F (stereo not shown) , please?
Key: > 6.60

Exercise: Recorded pKi for CCN(CC)CCOc1ccc(C2Nc3ccccc3-c3ccnc4[nH]cc2c34)cc1 (stereo not shown) , please?
Key: > 6.60

Exercise: Recorded pKi for O=[N+]([O-])c1cc(C2Nc3ccccc3-c3ccnc4[nH]cc2c34)ccc1O (stereo not shown) , please?
Key: 5.60 to 6.60

###

JAK-2 (Homo sapiens, UniProt O60674): reported Ki for various compounds.

Exercise: # get_value(readout= Ki, system= JAK-2 (Homo sapiens, UniProt O60674)) for Cn1cc2c3c(ccnc31)-c1cccnc1NC2c1ccc(O)c(Cl)c1 (stereo not shown)
Key: < 250 nM

Exercise: # get_value(readout= Ki, system= JAK-2 (Homo sapiens, UniProt O60674)) for Fc1cccc(F)c1C1Nc2ccccc2-c2ccnc3[nH]cc1c23 (stereo not shown)
Key: < 250 nM

Exercise: # get_value(readout= Ki, system= JAK-2 (Homo sapiens, UniProt O60674)) for `Oc1ccc(C2=Nc3ccccc3-c3ccnc4[nH]cc2c34)c(Cl)c1`
Key: < 250 nM

###

JAK-2 (Homo sapiens): reported Ki for various molecules.

Fc1cccc(C2Nc3ccccc3-c3ccnc4[nH]cc2c34)c1 (stereo not shown)	< 250 nM

Exercise: # get_value(readout= Ki, system= JAK-2 (Homo sapiens)) for Cn1cc2c3c(ncnc31)-c1ccccc1NC2c1ccc(O)c(F)c1 (stereo not shown)
Key: < 250 nM

Exercise: # get_value(readout= Ki, system= JAK-2 (Homo sapiens)) for OCCCC1Nc2ccccc2-c2ccnc3[nH]cc1c23 (stereo not shown)
Key: 250 to 2500 nM

Exercise: # get_value(readout= Ki, system= JAK-2 (Homo sapiens)) for `c1ccc2c(c1)NCc1c[nH]c3nccc-2c13`
Key: 250 to 2500 nM

Exercise: # get_value(readout= Ki, system= JAK-2 (Homo sapiens)) for c1ccc2c(c1)NC(c1ccc(-n3ccnc3)cc1)c1c[nH]c3nccc-2c13 (stereo not shown)
Key: 250 to 2500 nM

Exercise: # get_value(readout= Ki, system= JAK-2 (Homo sapiens)) for Fc1ccc(C2Nc3ccccc3-c3ccnc4[nH]cc2c34)c(Cl)c1 (stereo not shown)
Key: 250 to 2500 nM

Exercise: # get_value(readout= Ki, system= JAK-2 (Homo sapiens)) for c1ccc2c(c1)NC(c1ccc3c(c1)CCO3)c1c[nH]c3nccc-2c13 (stereo not shown)
Key: < 250 nM

Exercise: # get_value(readout= Ki, system= JAK-2 (Homo sapiens)) for Fc1cccc(C(F)(F)F)c1C1Nc2ccccc2-c2ccnc3[nH]cc1c23 (stereo not shown)
Key: 250 to 2500 nM

Exercise: # get_value(readout= Ki, system= JAK-2 (Homo sapiens)) for Cc1cc(C2Nc3ccccc3-c3ccnc4[nH]cc2c34)ccc1F (stereo not shown)
Key: > 2500 nM

Exercise: # get_value(readout= Ki, system= JAK-2 (Homo sapiens)) for Fc1cc(F)cc(C2Nc3ccccc3-c3ccnc4[nH]cc2c34)c1 (stereo not shown)
Key: 250 to 2500 nM

###

Target: JAK-3 (Homo sapiens, UniProt P52333)
Sequence (P52333 1-1124): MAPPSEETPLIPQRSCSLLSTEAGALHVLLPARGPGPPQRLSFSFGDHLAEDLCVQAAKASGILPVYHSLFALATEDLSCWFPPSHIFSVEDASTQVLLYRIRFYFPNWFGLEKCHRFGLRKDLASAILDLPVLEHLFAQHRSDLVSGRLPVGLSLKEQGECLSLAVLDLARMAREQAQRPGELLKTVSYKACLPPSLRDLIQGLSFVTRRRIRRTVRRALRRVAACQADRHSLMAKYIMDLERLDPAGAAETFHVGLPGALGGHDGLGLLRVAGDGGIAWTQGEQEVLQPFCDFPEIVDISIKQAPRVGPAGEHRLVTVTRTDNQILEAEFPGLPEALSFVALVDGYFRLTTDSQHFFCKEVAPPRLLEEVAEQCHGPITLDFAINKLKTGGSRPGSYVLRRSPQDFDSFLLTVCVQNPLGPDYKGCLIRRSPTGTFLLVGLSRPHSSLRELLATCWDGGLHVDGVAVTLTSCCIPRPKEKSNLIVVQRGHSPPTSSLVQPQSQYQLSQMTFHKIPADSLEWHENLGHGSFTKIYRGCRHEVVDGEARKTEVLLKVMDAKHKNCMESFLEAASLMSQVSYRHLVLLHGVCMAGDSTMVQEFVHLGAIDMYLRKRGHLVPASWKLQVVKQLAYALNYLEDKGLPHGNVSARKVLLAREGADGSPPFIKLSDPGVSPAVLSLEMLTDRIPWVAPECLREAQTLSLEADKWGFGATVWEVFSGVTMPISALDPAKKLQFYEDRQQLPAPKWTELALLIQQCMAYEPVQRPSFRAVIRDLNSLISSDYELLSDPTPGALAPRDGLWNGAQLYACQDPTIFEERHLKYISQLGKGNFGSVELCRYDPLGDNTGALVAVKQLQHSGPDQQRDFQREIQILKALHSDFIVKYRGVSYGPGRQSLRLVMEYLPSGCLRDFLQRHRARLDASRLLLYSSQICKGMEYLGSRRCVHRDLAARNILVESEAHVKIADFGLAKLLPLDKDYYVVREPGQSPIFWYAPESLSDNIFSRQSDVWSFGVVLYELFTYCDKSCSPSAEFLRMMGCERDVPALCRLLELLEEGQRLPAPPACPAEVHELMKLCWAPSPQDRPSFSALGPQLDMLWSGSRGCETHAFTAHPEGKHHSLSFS
REPORTED PROPERTY: Ki

For orientation, consider the following solved cases.
Cc1ccc(COc2ccccc2C2Nc3ccccc3-c3ccnc4[nH]cc2c34)cc1 (centres unmarked)	> 2500 nM
COc1cc(C2Nc3ccccc3-c3ncnc4[nH]cc2c34)cc(OC)c1O (centres unmarked)	250 to 2500 nM
Fc1cccc(Cl)c1C1Nc2ccccc2-c2ccnc3[nH]cc1c23 (centres unmarked)	250 to 2500 nM
Oc1c(F)cc(C2Nc3ccccc3-c3ccnc4[nH]cc2c34)cc1F (centres unmarked)	≤ 250 nM
O=C(OCc1ccccc1)N1CCC(C2Nc3ccccc3-c3ccnc4[nH]cc2c34)CC1 (centres unmarked)	> 2500 nM

Exercise: Recorded Ki for Oc1ccc(O)c(C2Nc3ccccc3-c3ccnc4[nH]cc2c34)c1 (centres unmarked) , please?
Key: 250 to 2500 nM

Exercise: Recorded Ki for COc1ccc(C2NC(=O)c3ccccc3-c3ccnc4[nH]cc2c34)cc1 (centres unmarked) , please?
Key: > 2500 nM

Exercise: Recorded Ki for Oc1ccc(C2Nc3ccccc3-c3ccnc4[nH]cc2c34)cc1OC(F)(F)F (centres unmarked) , please?
Key: 250 to 2500 nM

Exercise: Recorded Ki for CCOc1cc(C2Nc3ccccc3-c3ccnc4[nH]cc2c34)ccc1O (centres unmarked) , please?
Key: 250 to 2500 nM

Exercise: Recorded Ki for COc1ccc(C2Nc3ccccc3-c3ccnc4[nH]cc2c34)cc1 (centres unmarked) , please?
Key: ≤ 250 nM

Exercise: Recorded Ki for c1ccc2c(c1)NC(c1ccc3nsnc3c1)c1c[nH]c3nccc-2c13 (centres unmarked) , please?
Key: > 2500 nM

###

target: JAK-2 (Homo sapiens, UniProt O60674)
pKi: −log10 of the molar value.
REPORTED PROPERTY: pKi

For orientation, consider the following solved cases.
Fc1ccc(F)c(C2Nc3ccccc3-c3c(Cl)cnc4[nH]cc2c34)c1F (stereo not shown)	> 6.60
COC(=O)Nc1ccc(C2c3c[nH]c4nccc(c34)-c3ccccc3N2C(=O)OC)cc1 (stereo not shown)	< 5.60
CCCOc1ccc(C2Nc3ccccc3-c3ccnc4[nH]cc2c34)cc1 (stereo not shown)	> 6.60
Cc1cc(C2Nc3ccccc3-c3ccnc4[nH]cc2c34)cc(C)c1O (stereo not shown)	5.60 to 6.60
Brc1ccc(C2Nc3ccccc3-c3ccnc4[nH]cc2c34)cc1 (stereo not shown)	< 5.60
c1ccc(-c2onc3ccc(C4Nc5ccccc5-c5ccnc6[nH]cc4c56)cc23)cc1 (stereo not shown)	< 5.60

Continue with the compound presented below.
Exercise: # get_value(readout= pKi, system= JAK-2 (Homo sapiens, UniProt O60674)) for `Nc1ccc(C2=Nc3ccccc3-c3ccnc4[nH]cc2c34)cc1`
Key: > 6.60
